- Tested on: Mycobacterium tuberculosis
- assay-notes: Antimycobacterial activity against Mycobacterium tuberculosis H37Rv measured by microplate alamar blue assay
- Format: functional
property: MIC

Recorded results for 2 molecules are shown here.
- molecule: "CO[C@H]1/C=C/O[C@@]2(C)Oc3c(C)c(O)c4c(O)c(c(/C=N/N5CCN(C)CC5)c(O)c4c3C2=O)NC(=O)/C(C)=C\\C=C\\[C@H](C)[C@H](O)[C@@H](C)[C@@H](O)[C@@H](C)[C@H](OC(C)=O)[C@@H]1C [RIFAMPIN]"
  target-desc: "Mycobacterium tuberculosis"
  MIC: "0.037 µg/mL"
- molecule: "O=C1NC(=S)NC(=O)C1=Cc1cc(OCc2ccc(Cl)cc2)cc(-c2cc(Cl)c(O)c(Cl)c2)c1"
  target-desc: "Mycobacterium tuberculosis"
  MIC: "> 32 µg/mL"

Pending molecule:
Input: Item `O=C1NC(=S)NC(=O)C1=Cc1cc(-c2cc(Cl)c(O)c(Cl)c2)ccc1OCc1ccc(Cl)cc1` with Mycobacterium tuberculosis - MIC?
Output: > 32 µg/mL

* * *

- assay-notes: Cytotoxicity against mouse J774.A1 cells after 48 hrs by MTT assay
- Assay type: toxicity, cell-based
property: log10 of IC50 at 48 h (log10 of the value in µg/mL)
log10 IC50 at 48 h, µg/mL

- compound-smiles: "O=C1NC(=S)NC(=O)C1=Cc1cc(-c2ccc(C(F)(F)F)cc2)ccc1OCc1ccc(Cl)cc1"
  log10 of IC50 at 48 h: 1.17
- compound-smiles: "O=C1NC(=S)NC(=O)C1=Cc1ccc(OCc2ccc(Cl)cc2)c(-c2cc(Cl)c(O)c(Cl)c2)c1"
  log10 of IC50 at 48 h: 1.14
- compound-smiles: "O=C1NC(=S)NC(=O)C1=Cc1cc(OCc2ccc(Cl)cc2)cc(-c2cc(Cl)c(O)c(Cl)c2)c1"
  log10 of IC50 at 48 h: 1.60

Input: Please give the measured log10 of IC50 at 48 h for this compound: `O=C1NC(=S)NC(=O)C1=Cc1cc(-c2cc(Cl)c(O)c(Cl)c2)ccc1OCc1cc(F)cc(F)c1`
Output: 1.19

Input: Please give the measured log10 of IC50 at 48 h for this compound: `O=C1NC(=S)NC(=O)C1=Cc1ccc(OCc2ccc(Cl)cc2)cc1-c1cc(Cl)c(O)c(Cl)c1`
Output: 1.76

Input: Please give the measured log10 of IC50 at 48 h for this compound: `O=C1NC(=S)NC(=O)C1=Cc1cc(-c2cc(Cl)c(O)c(Cl)c2)ccc1OCc1ccccc1`
Output: 0.54

Input: Please give the measured log10 of IC50 at 48 h for this compound: `O=C1NC(=S)NC(=O)C1=Cc1cc(-c2cc(Cl)c(O)c(Cl)c2)ccc1OCc1ccc(Cl)cc1`
Output: 1.11

* * *

- target-desc: Phosphotyrosine-protein phosphatase PTPB (Mycobacterium tuberculosis) (UniProt P96830)
- Sequence (P96830 as listed by the source): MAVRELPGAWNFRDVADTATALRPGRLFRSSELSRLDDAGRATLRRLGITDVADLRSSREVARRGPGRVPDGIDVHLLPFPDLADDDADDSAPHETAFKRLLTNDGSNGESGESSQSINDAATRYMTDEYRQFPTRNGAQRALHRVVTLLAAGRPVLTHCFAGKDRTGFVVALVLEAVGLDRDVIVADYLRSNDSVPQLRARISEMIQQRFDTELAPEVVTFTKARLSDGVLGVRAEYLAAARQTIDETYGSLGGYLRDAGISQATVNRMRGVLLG
- assay-notes: Inhibition of recombinant Mycobacterium tuberculosis H37Rv MptpB using pNPP as substrate incubated for 10 mins at 50 uM and measured by spectrophotometric method relative to control
Catalogue of inhibition values
State just the number; it will be interpreted in %.

Recorded results for 10 compounds are shown here.
- compound-smiles: "O=C1NC(=S)NC(=O)C1=Cc1ccc(-c2cc(Cl)c(O)c(Cl)c2)c(OCc2ccc(Cl)cc2)c1"
  property: "inhibition"
  value-observed: 75.2
- compound-smiles: "O=C1NC(=S)NC(=O)C1=Cc1cc(-c2cc(Cl)c(O)c(Cl)c2)ccc1OCc1cc(F)cc(F)c1"
  property: "inhibition"
  value-observed: 89.1
- compound-smiles: "O=C1NC(=S)NC(=O)C1=Cc1cc(-c2ccc(Cl)cc2)ccc1OCc1ccc(Cl)cc1"
  property: "inhibition"
  value-observed: 77.5
- compound-smiles: "Cc1cc(-c2ccc(OCc3ccc(Cl)cc3)c(C=C3C(=O)NC(=S)NC3=O)c2)cc(C)c1O"
  property: "inhibition"
  value-observed: 59.2
- compound-smiles: "O=C1NC(=S)NC(=O)C1=Cc1c(OCc2ccc(Cl)cc2)cccc1-c1cc(Cl)c(O)c(Cl)c1"
  property: "inhibition"
  value-observed: 45.5
- compound-smiles: "COC(=O)c1ccc(-c2ccc(OCc3ccc(Cl)cc3)c(C=C3C(=O)NC(=S)NC3=O)c2)cc1"
  property: "inhibition"
  value-observed: 63.3
- compound-smiles: "O=C1NC(=S)NC(=O)C1=Cc1cc(-c2ccc(O)c(F)c2)ccc1OCc1ccc(Cl)cc1"
  property: "inhibition"
  value-observed: 65
- compound-smiles: "O=C1NC(=S)NC(=O)C1=Cc1cc(-c2ccc3occc(=O)c3c2)ccc1OCc1ccc(Cl)cc1"
  property: "inhibition"
  value-observed: 73
- compound-smiles: "O=C1NC(=S)NC(=O)C1=Cc1cc(-c2ccc(O)c(Cl)c2)ccc1OCc1ccc(Cl)cc1"
  property: "inhibition"
  value-observed: 72.7
- compound-smiles: "O=C1NC(=S)NC(=O)C1=Cc1ccc(OCc2ccc(Cl)cc2)c(-c2cc(Cl)c(O)c(Cl)c2)c1"
  property: "inhibition"
  value-observed: 84.4

Input: Please give the measured inhibition for this compound: `COc1ccc(-c2ccc(OCc3ccc(Cl)cc3)c(C=C3C(=O)NC(=S)NC3=O)c2)cc1`
Output: 42.7

Input: Please give the measured inhibition for this compound: `O=C1NC(=S)NC(=O)C1=Cc1cc(OCc2ccc(Cl)cc2)cc(-c2cc(Cl)c(O)c(Cl)c2)c1`
Output: 91.6

Input: Please give the measured inhibition for this compound: `O=C1NC(=S)NC(=O)C1=Cc1cc(-c2ccc(C(F)(F)F)cc2)ccc1OCc1ccc(Cl)cc1`
Output: 86.4

Input: Please give the measured inhibition for this compound: `O=C1NC(=S)NC(=O)C1=Cc1cc(-c2ccccc2)ccc1OCc1ccc(Cl)cc1`
Output: 43.9

Input: Please give the measured inhibition for this compound: `O=C1NC(=S)NC(=O)C1=Cc1cc(-c2cc3ccccc3s2)ccc1OCc1ccc(Cl)cc1`
Output: 57.5

* * *

Catalogue of MIC values
- Test system: Mycobacterium tuberculosis
- assay-notes: Antimycobacterial activity against Mycobacterium tuberculosis H37Rv measured by microplate alamar blue assay
- Type: functional

Recorded results for 3 compounds are shown here.
- compound-smiles: "O=C1NC(=S)NC(=O)C1=Cc1cc(-c2ccc(C(F)(F)F)cc2)ccc1OCc1ccc(Cl)cc1"
  target-desc: "Mycobacterium tuberculosis"
  MIC: "> 32 mg/L"
- compound-smiles: "O=C1NC(=S)NC(=O)C1=Cc1ccc(OCc2ccc(Cl)cc2)cc1-c1cc(Cl)c(O)c(Cl)c1"
  target-desc: "Mycobacterium tuberculosis"
  MIC: "> 32 mg/L"
- compound-smiles: "O=C1NC(=S)NC(=O)C1=Cc1ccc(OCc2ccc(Cl)cc2)c(-c2cc(Cl)c(O)c(Cl)c2)c1"
  target-desc: "Mycobacterium tuberculosis"
  MIC: "> 32 mg/L"

Input: Please give the measured MIC for this compound: `O=C1NC(=S)NC(=O)C1=Cc1cc(-c2cc(Cl)c(O)c(Cl)c2)ccc1OCc1cc(F)cc(F)c1`
Output: > 32 mg/L

Input: Please give the measured MIC for this compound: `NNC(=O)c1ccncc1`
Output: 0.072 mg/L

Input: Please give the measured MIC for this compound: `O=C1NC(=S)NC(=O)C1=Cc1cc(-c2cc(Cl)c(O)c(Cl)c2)ccc1OCc1ccccc1`
Output: 25.1 mg/L

* * *

- target-desc: Phosphotyrosine-protein phosphatase PTPB (Mycobacterium tuberculosis)
- Sequence (P96830 whole entry): as the sequence (P96830 as listed by the source) above
- assay-notes: Inhibition of recombinant Mycobacterium tuberculosis H37Rv MptpB using pNPP as substrate incubated for 10 mins and measured by spectrophotometric method
property: pIC50
Give only the number. pIC50 is defined as minus log10 of concentration in molar units.

Recorded results for 5 compounds are shown here.
- compound: "O=C(C(c1ccccc1)S(=O)(=O)O)N1CCCC2CCCCC21 (centres undefined)"
  property: "pIC50"
  value-observed: 7.74
- compound: "O=C1NC(=S)NC(=O)C1=Cc1cc(-c2cc(Cl)c(O)c(Cl)c2)ccc1OCc1cc(F)cc(F)c1"
  property: "pIC50"
  value-observed: 5.27
- compound: "O=C1NC(=S)NC(=O)C1=Cc1ccc(OCc2ccc(Cl)cc2)c(-c2cc(Cl)c(O)c(Cl)c2)c1"
  property: "pIC50"
  value-observed: 5.23
- compound: "O=C1NC(=S)NC(=O)C1=Cc1cc(OCc2ccc(Cl)cc2)cc(-c2cc(Cl)c(O)c(Cl)c2)c1"
  property: "pIC50"
  value-observed: 5.33
- compound: "O=C1NC(=S)NC(=O)C1=Cc1cc(-c2ccc(C(F)(F)F)cc2)ccc1OCc1ccc(Cl)cc1"
  property: "pIC50"
  value-observed: 5.42

Input: Please give the measured pIC50 for this compound: `Cc1onc(C(=O)O)c1-c1cccc(-c2cc(Cl)c(O)c(Cl)c2)c1`
Output: 5.53

Input: Please give the measured pIC50 for this compound: `O=C1NC(=S)NC(=O)C1=Cc1cc(Br)ccc1OCc1ccc(Cl)cc1`
Output: 4.65

Input: Please give the measured pIC50 for this compound: `O=C1NC(=S)NC(=O)C1=Cc1cc(-c2cc(Cl)c(O)c(Cl)c2)ccc1OCc1ccccc1`
Output: 5.42

Input: Please give the measured pIC50 for this compound: `O=C1NC(=S)NC(=O)C1=Cc1cc(-c2cc(Cl)c(O)c(Cl)c2)ccc1OCc1ccc(Cl)cc1`
Output: 5.93
